B1: Azoarcus group I ribozyme (parent)
chain: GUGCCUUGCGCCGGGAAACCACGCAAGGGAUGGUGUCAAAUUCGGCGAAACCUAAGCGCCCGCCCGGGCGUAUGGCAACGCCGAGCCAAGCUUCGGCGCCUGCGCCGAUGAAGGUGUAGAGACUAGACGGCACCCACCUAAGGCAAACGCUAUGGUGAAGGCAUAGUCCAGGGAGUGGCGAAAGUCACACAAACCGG

# Variants of: B1
# test_summary: reverse-splicing fitness (ratio to wild type); higher = more active; in vitro selection; Mg2+ level not given
readout_name: reverse-splicing fitness
Kindly provide the number alone.

Answered cases to consult:
- changes: "C82A A111G A120U A145C"
  reverse-splicing fitness: 0.027
- changes: "A111U A120C A145G C150U C169U"
  reverse-splicing fitness: 0.148
- changes: "A111G A120U A145U C150U C169G U176A"
  reverse-splicing fitness: 0.00842

The variant listed as A111G A145G C150U C169G U176A has a reported reverse-splicing fitness of 0.0289

Entry source: the RNAGym collection of RNA variant scans (doi:10.1093/molbev/msab373)
